# Species: Rattus norvegicus
# procedure.text: DrugMatrix - Regimen: Daily Repeat
# Format: toxicity, organism-based, Sprague-Dawley
# Set-up: regimen Daily Repeat, gender Male, age 6-8 weeks
# measurement.context: in vivo, po, 0 mg/kg, 72 h, tissue Blood, route oral GAVAGE, dose level Control, time 3 day, vehicle .5 % CMC
readout.name: LEUKOCYTE COUNT (x10E3/uL)
The figure you give is taken to be in x10E3/uL; do not add the unit.

compound	unit.descriptor	endpoint.value
O=C1CN=C(c2ccccc2Cl)c2cc([N+](=O)[O-])ccc2N1	x10E3/uL	13.57
CC(=O)Oc1ccc(C(c2ccc(OC(C)=O)cc2)c2ccccn2)cc1	x10E3/uL	10.64
NC1CCN(c2nc3c(cc2F)c(=O)c(C(=O)O)cn3-c2ccc(F)cc2F)C1 (configuration not stated)	x10E3/uL	13
CN(C)[C@@H]1C(O)=C(C(N)=O)C(=O)[C@@]2(O)C(O)=C3C(=O)c4c(O)ccc(Cl)c4[C@@](C)(O)[C@H]3C[C@@H]12	x10E3/uL	15.93
O=C1C(CC[S+]([O-])c2ccccc2)C(=O)N(c2ccccc2)N1c1ccccc1 (configuration not stated)	x10E3/uL	15.25

Entry CNCCC(Oc1ccc(C(F)(F)F)cc1)c1ccccc1 (configuration not stated) — recorded LEUKOCYTE COUNT = 11.18

Entry NCCCC(O)(P(=O)(O)O)P(=O)(O)O — recorded LEUKOCYTE COUNT = 11.54

---

# Species: Rattus norvegicus
# procedure.text: DrugMatrix - Regimen: Daily Repeat
# Type: toxicity, organism-based, Sprague-Dawley
# Set-up: regimen Daily Repeat, gender Male, age 6-8 weeks
# measurement.context: in vivo, po, 0 mg/kg, 120 h, tissue Blood, route oral GAVAGE, dose level Control, time 5 day, vehicle .5 % CMC
Entries and their MEAN CORPUSCULAR VOLUME values follow.
The figure you give is taken to be in fL; do not add the unit.

Example entries begin here.
compound	unit.descriptor	endpoint.value
CC(C(=O)O)c1ccc2oc(-c3ccc(Cl)cc3)nc2c1 (stereo not given)	fL	64.6
CNCCC(Oc1ccc(C(F)(F)F)cc1)c1ccccc1 (stereo not given)	fL	60.65
CN/C(=N/CCSCc1nc[nH]c1C)NC#N	fL	63.67
CN(C/C=C/C#CC(C)(C)C)Cc1cccc2ccccc12	fL	59.12

Moving on to another compound below.
Entry NCCCC(O)(P(=O)(O)O)P(=O)(O)O — recorded MEAN CORPUSCULAR VOLUME = 59.55

---

Entries and their POTASSIUM values follow.
# Species on record: Rattus norvegicus
# procedure.text: DrugMatrix - Regimen: Daily Repeat
# Format: toxicity, organism-based, Sprague-Dawley
# Design: regimen Daily Repeat, gender Male, age 6-8 weeks
# measurement.context: in vivo, po, 10 mg/kg, 120 h, tissue Plasma, route oral GAVAGE, dose level Low, time 5 day, vehicle .5 % CMC
The figure you give is taken to be in MEQ/L; do not add the unit.

Example entries begin here.
molecule	POTASSIUM [MEQ/L]
Fc1ccc(C(c2ccc(F)cc2)N2CCN(C/C=C/c3ccccc3)CC2)cc1	6.62
O=C1CN=C(c2ccccc2Cl)c2cc([N+](=O)[O-])ccc2N1	5.92
CNCCC(Oc1ccc(C(F)(F)F)cc1)c1ccccc1 (centres undefined)	6.2

Moving on to another molecule below.
Entry O=C1C(CC[S+]([O-])c2ccccc2)C(=O)N(c2ccccc2)N1c1ccccc1 (centres undefined) — recorded POTASSIUM = 6.44

---

# Species: Rattus norvegicus
# procedure.text: DrugMatrix - Regimen: Daily Repeat
# Assay type: toxicity, organism-based, Sprague-Dawley
# Parameters: regimen Daily Repeat, gender Male, age 6-8 weeks
# measurement.context: in vivo, po, 0 mg/kg, 72 h, tissue Blood, route oral GAVAGE, dose level Control, time 3 day, […]
readout.name: ABSOLUTE LYMPHOCYTE

Example entries begin here.
compound	readout.name	endpoint.value
CO[C@H]1/C=C/O[C@@]2(C)Oc3c(C)c(O)c4c(O)c(c(/C=N/N5CCN(C6CCCC6)CC5)c(O)c4c3C2=O)NC(=O)/C(C)=C\C=C\[C@H](C)[C@H](O)[C@@H](C)[C@@H](O)[C@@H](C)[C@H](OC(C)=O)[C@@H]1C [RIFAPENTINE]	ABSOLUTE LYMPHOCYTE	11440.17 CELLS/uL
Clc1ccc(COC(Cn2ccnc2)c2ccc(Cl)cc2Cl)cc1 (centres undefined) [ECONAZOLE]	ABSOLUTE LYMPHOCYTE	7601 CELLS/uL
COc1cc(N)c(Cl)cc1C(=O)NC1CCN(CCCOc2ccc(F)cc2)CC1OC (centres undefined) [CISAPRIDE]	ABSOLUTE LYMPHOCYTE	10069.5 CELLS/uL

Moving on to another compound below.
Entry CC(C)(C)NC(=O)[C@H]1CC[C@H]2[C@@H]3CC[C@H]4NC(=O)C=C[C@]4(C)[C@H]3CC[C@]12C [FINASTERIDE] — recorded ABSOLUTE LYMPHOCYTE = 9105.33 CELLS/uL

---

# Species: Rattus norvegicus
# procedure.text: DrugMatrix - Regimen: Daily Repeat
# Type: toxicity, organism-based, Sprague-Dawley
# Parameters: regimen Daily Repeat, gender Male, age 6-8 weeks
# measurement.context: in vivo, sc, 0 mg/kg, 72 h, tissue Plasma, route subcutaneous, dose level Control, time 3 day, […]
readout.name: ALANINE AMINOTRANSFERASE

molecule	ALANINE AMINOTRANSFERASE
O=C(Nc1ccc(Br)cc1)c1cc(Br)cc(Br)c1O [TRIBROMSALAN]	48.67 u/L
CCN(CC)CCOCCC1=CCC2CC1C2(C)C (stereo not given) [MYRTECAINE]	57.17 u/L

Entry Oc1c(Cl)cc(Cl)c(Cl)c1Cc1c(O)c(Cl)cc(Cl)c1Cl [HEXACHLOROPHENE] — recorded ALANINE AMINOTRANSFERASE = 48.83 u/L

Entry CCC(=O)O[C@]1(C(=O)CCl)[C@@H](C)C[C@H]2[C@@H]3CCC4=CC(=O)C=C[C@]4(C)[C@@]3(F)[C@@H](O)C[C@@]21C [CLOBETASOL PROPIONATE] — recorded ALANINE AMINOTRANSFERASE = 48.67 u/L

Entry CC(C)(C)CC(C)(C)c1ccc(OCCOCC[N+](C)(C)Cc2ccccc2)cc1.[Cl-] [BENZETHONIUM CHLORIDE] — recorded ALANINE AMINOTRANSFERASE = 48.83 u/L

---

# Species: Rattus norvegicus
# procedure.text: DrugMatrix - Regimen: Daily Repeat
# Format: toxicity, organism-based, Sprague-Dawley
# Set-up: regimen Daily Repeat, gender Male, age 6-8 weeks
# measurement.context: in vivo, po, 0 mg/kg, 120 h, tissue Plasma, route oral GAVAGE, dose level Control, time 5 day, […]
readout.name: BLOOD UREA NITROGEN
Write the quantity with the unit trailing the number.

Example entries begin here.
compound	BLOOD UREA NITROGEN
COc1cc(N)c(Cl)cc1C(=O)NC1CCN(CCCOc2ccc(F)cc2)CC1OC (centres undefined) [CISAPRIDE]	14 mg/dL
CO[C@H]1/C=C/O[C@@]2(C)Oc3c(C)c(O)c4c(O)c(c(/C=N/N5CCN(C6CCCC6)CC5)c(O)c4c3C2=O)NC(=O)/C(C)=C\C=C\[C@H](C)[C@H](O)[C@@H](C)[C@@H](O)[C@@H](C)[C@H](OC(C)=O)[C@@H]1C	14.33 mg/dL
CC(C)(C)NC(=O)[C@H]1CC[C@H]2[C@@H]3CC[C@H]4NC(=O)C=C[C@]4(C)[C@H]3CC[C@]12C [FINASTERIDE]	13 mg/dL

Entry Clc1ccc(COC(Cn2ccnc2)c2ccc(Cl)cc2Cl)cc1 (centres undefined) — recorded BLOOD UREA NITROGEN = 13.67 mg/dL

---

Entries and their MEAN CORPUSCULAR HEMOGLOBIN values follow.
# Species: Rattus norvegicus
# procedure.text: DrugMatrix - Regimen: Daily Repeat
# Type: toxicity, organism-based, Sprague-Dawley
# Set-up: regimen Daily Repeat, gender Male, age 6-8 weeks
# measurement.context: in vivo, po, 10 mg/kg, 72 h, tissue Blood, route oral GAVAGE, dose level Low, time 3 day, vehicle .5 % CMC
The figure you give is taken to be in pg; do not add the unit.

Example entries begin here.
compound	readout.name	endpoint.value
O=C1CN=C(c2ccccc2Cl)c2cc([N+](=O)[O-])ccc2N1	MEAN CORPUSCULAR HEMOGLOBIN	25.1
Fc1ccc(C(c2ccc(F)cc2)N2CCN(C/C=C/c3ccccc3)CC2)cc1	MEAN CORPUSCULAR HEMOGLOBIN	24.2
O=C1C(CC[S+]([O-])c2ccccc2)C(=O)N(c2ccccc2)N1c1ccccc1 (centres undefined)	MEAN CORPUSCULAR HEMOGLOBIN	25.73

Entry CNCCC(Oc1ccc(C(F)(F)F)cc1)c1ccccc1 (centres undefined) — recorded MEAN CORPUSCULAR HEMOGLOBIN = 24.53

// provenance: ChEMBL document CHEMBL3885881
